The origin of these recorded values is PubChem BioAssay (NCATS).

Protocol Text: qHTS of pediatric cancer cell lines to identify multiple opportunities for drug repurposing: Primary screen for LAN-5 cells (AID 1347100)
Condition Set: LAN-5 neuroblastoma viability, CellTiter-Glo luminescence, 48 h; series mostly up to 46 µM
Records with an inconclusive call do not appear. Active and inactive are the calls of the source. Calls follow the shape of the dose curve; as a rule, active = well fitted cell-killing curve with a large enough effect; inconclusive = small, poorly fitted or top-dose-only effect; inactive = no such curve, though single readings can be large or run the other way.
Outcomes you can answer with include only these: active, inactive

Examples with answers:
| Molecule | Class Assignment |
| --- | --- |
| CC[C@]1(O)C[C@@H]2CN(CCc3c([nH]c4ccccc34)[C@@](C(=O)OC)(c3cc4c(cc3OC)N(C=O)[C@@H]3C45CCN4CC=C[C@](CC)([C@H]45)[C@@H](OC(C)=O)[C@]3(O)C(=O)OC)C2)C1 (stereo not given in full) | inactive |
| Cc1ccc(C(C)(O)c2nc3ccccc3s2)c(C)c1 (stereo not given) | active |
| O=C(Nc1c(Cl)cncc1Cl)c1ccc(OC(F)F)c(OCC2CC2)c1 | inactive |
| NS(=O)(=O)c1cccc2c1C(=O)c1cccc(O)c1C2=O | active |

Consider now this further molecule.
Challenge: Write down the call the test reported for this molecule. Item: CC(=O)N(C)C1(c2ccccc2)CCN(CCC[C@]2(c3ccc(Cl)c(Cl)c3)CCCN(C(=O)c3ccccc3)C2)CC1
Response given: active

---

Protocol Text: qHTS profiling of the MIPE4 collection as inhibitors of Plasmodium falciparum (DD2) proliferation (AID 743345)
Condition Set: P. falciparum Dd2 in erythrocytes, SYBR Green DNA, 72 h; at 28.5 µM (top of the series) unless noted
Entries whose parasite growth remaining, % of DMSO control (lower = more inhibition) is below 8% take 1; entries at or above 8% take 0.

| Compound | Class Assignment |
| --- | --- |
| NC(=O)c1ccc2nc(-c3ccc(Oc4ccc(Cl)cc4)cc3)[nH]c2c1 | 0 |

Challenge: Given the entry CCNc1cc(NC2CCC(O)CC2)nc(Nc2ccc3c(ccn3Cc3ccccc3)c2)n1 (centres undefined) , would its reported parasite growth remaining, % of DMSO control (lower = more inhibition) be below 8%?
Response given: 1

Challenge: Given the entry O=C1Nc2ccc(Cl)cc2C(C#CC2CC2)(C(F)(F)F)O1 (centres undefined) , would its reported parasite growth remaining, % of DMSO control (lower = more inhibition) be below 8%?
Response given: 0

---

Protocol Text: qHTS profiling for inhibitors of Plasmodium falciparum (3D7) proliferation (AID 743322);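 also: infected erythrocytes exposed to compound for 72 h before lysis; 100% = DMSO vehicle wells and 0% = 0.29 µM artemisinin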
Condition Set: P. falciparum 3D7 proliferation; at 28.7 µM (top of the series)
For each of the molecules below, state its remaining parasite growth % (stronger effect = lower value).
Numbers only, in %.

The following molecules have reported results that may help.
| Molecule | Measure Unit | Number |
| --- | --- | --- |
| NC(CO)(CO)CCc1ccc(Sc2cccc(OCc3ccccc3)c2)cc1Cl | % | -0.423 |
| CN(C)Cc1ccc(-c2nc3cccc4c3n2CCNC4=O)cc1 | % | 86.1 |

For every item below, please supply its remaining parasite growth % (stronger effect = lower value).
1. O=c1cc(CN2CCOCC2)occ1OCCCCCSc1ccnc2cc(C(F)(F)F)ccc12
2. O=C(O)CCC1CCC(c2cc(F)ccc2F)(S(=O)(=O)c2ccc(Cl)cc2)CC1 (stereo unspecified)
3. O=C(N[C@@H](c1ccccc1)[C@@H]1CCCCN1)c1cccc(C(F)(F)F)c1Cl
4. CCc1ccc(OCc2ccccc2C(=O)Nc2ccc3nc(C)cc(N)c3c2)cc1
5. CC(C)C(=O)Nc1ncc(-c2cc(C(F)F)nn2-c2c(Cl)cccc2Cl)s1

Response given:
1. 28.8
2. 23.3
3. 52.4
4. -0.867
5. 0.0648

For every item below, please supply its remaining parasite growth % (stronger effect = lower value).
1. CC[C@H]1OC(=O)[C@H](C)[C@@H](O[C@H]2C[C@@](C)(OC)[C@@H](O)[C@H](C)O2)[C@H](C)[C@@H](O[C@@H]2O[C@H](C)C[C@H](N(C)C)[C@@H]2O)[C@](C)(O)C[C@@H](C)CN(C)[C@H](C)[C@@H](O)[C@]1(C)O
2. O=C(Nc1cc(Cl)cc2c1[nH]c1cnccc12)c1cccnc1
3. CO[C@H]1C=CC=C(C)C(=O)NC2=CC(=O)C(NCCN(C)C)=C(C[C@@H](C)C[C@H](OC)[C@@H](O)[C@@H](C)C=C(C)[C@@H]1OC(N)=O)C2=O
4. c1ccc2c(-c3cnn4cc(-c5ccc(N6CCNCC6)cc5)cnc34)ccnc2c1
5. CO[C@H]1C[C@@H]2CC[C@@H](C)[C@@](O)(O2)C(=O)C(=O)N2CCCC[C@@H]2C(=O)O[C@H]([C@H](C)C[C@@H]2CC[C@H](OCCO)[C@H](OC)C2)CC(=O)[C@H](C)C=C(C)[C@@H](O)[C@@H](OC)C(=O)[C@H](C)C[C@H](C)C=CC=CC=C1C
6. CC(C)(C)C(=O)Oc1ccc2c(c1)nc(NC(=O)c1cccc([N+](=O)[O-])c1)n2CCCO
7. Cc1ccc(F)c(NC(=O)Nc2ccc(-c3cccc4[nH]nc(N)c34)cc2)c1

Response given:
[11.3, -0.264, -0.553, -1.65, -1.41, 92, 81.3]

For every item below, please supply its remaining parasite growth % (stronger effect = lower value).
1. CC(=O)Nc1ccc([C@H](C)C(=O)Nc2ncc(C(C)C)s2)cc1
2. CC(C)(C)c1cc(C(=O)O)c(NC(=O)Nc2ccc3[nH]ncc3c2)s1

Response given:
1: 95.5; 2: 97

---

Protocol Text: qHTS of pediatric cancer cell lines to identify multiple opportunities for drug repurposing: Primary screen for RD cells (AID 1347104); also: nearly all actives have a fitted effect of over 55% in size
Condition Set: RD rhabdomyosarcoma viability, CellTiter-Glo luminescence, 48 h; series mostly up to 46 µM
Inconclusive results are not listed. Active and inactive are the calls of the source. Calls follow the shape of the dose curve; as a rule, active = well fitted cell-killing curve with a large enough effect; inconclusive = small, poorly fitted or top-dose-only effect; inactive = flat fitted curve, though single readings scatter.
Outcomes you can answer with include only these: T = active, F = inactive

| Molecule | Class Assignment |
| --- | --- |
| O=C(NCc1ccccc1)c1csc(Nc2ccncn2)n1 | T |
| O=c1cc(N2CCOCC2)oc2c(-c3cccc4c3sc3ccccc34)cccc12 | T |
| CCCCCNC(=O)N1CCC(CN(Cc2ccc(Cl)cc2)Cc2ccc([N+](=O)[O-])s2)C1 (centres undefined) | T |
| O=C(O)c1ccccc1C(=O)Nc1ccc(-c2ccccc2)cc1 | F |
| COc1ccc2cc(-c3nc(-c4ccc(S(C)=O)cc4)[nH]c3-c3ccncc3)ccc2c1 (centres undefined) | F |
| CN(C)Cc1ccc(-c2nc3cccc4c3n2CCNC4=O)cc1 | T |
| C[C@@H]1CCN(C(=O)CC#N)C[C@H]1N(C)c1ncnc2[nH]ccc12 | F |
| CC(C)(C)C(=O)Oc1ccc2c(c1)nc(NC(=O)c1cccc([N+](=O)[O-])c1)n2CCCO | F |
| C=C1C(=O)OC(CCCCCCCC)C1C(=O)O (centres undefined) | F |
| Clc1ccc(C(c2ccc(Cl)cc2)n2cc[n+](CC(OCc3ccc(Cl)cc3Cl)c3ccc(Cl)cc3Cl)c2)cc1 (centres undefined) | T |

Challenge: Write down the call the test reported for this molecule. Item: OC[C@H]1O[C@@H](Oc2cc(O)cc(C=Cc3ccc(O)cc3)c2)[C@H](O)[C@@H](O)[C@H]1O
Response given: F

Challenge: Write down the call the test reported for this molecule. Item: c1ccc2c(Cc3c[nH]c4ccccc34)c[nH]c2c1
Response given: T

Challenge: Write down the call the test reported for this molecule. Item: Cc1ccc(C(C)(O)c2nc3ccccc3s2)c(C)c1 (centres undefined)
Response given: F

Challenge: Write down the call the test reported for this molecule. Item: C[N+](C)(C)CC(=O)O
Response given: F

---

Protocol Text: Quantitative High-Throughput drug screen in 47 multiple myeloma cell lines against the NCATS MIPE library collection: RPMI8226_ATCC cell viability assay (AID 1919871); also: nearly all actives have a fitted effect of over 30% in size
Condition Set: RPMI8226 myeloma viability, CellTiter-Glo ATP luminescence, 48 h; series mostly up to 45.8 µM
Inconclusive results are not listed. Active and inactive are the calls of the source. The call rests on the fitted dose curve; in most records, active means well fitted cell-killing curve with a large enough effect; inconclusive means small, poorly fitted or top-dose-only effect, or effect the other way; inactive means no such curve, though single readings can be large or run the other way.
Outcomes you can answer with include only these: active, inactive

| Molecule | Class Assignment |
| --- | --- |
| COc1cc(O)c2c(c1)C(=O)c1cc(C)cc(O)c1C2=O | inactive |
| COC(=O)C1=CO[C@@H](O)[C@@H]2C(CO)=CC[C@@H]12 | active |

Challenge: Write down the call the test reported for this molecule. Item: C=C1C(=O)[C@@]23C(CC[C@@H]1[C@H]2O)[C@@]12CO[C@]3(O)[C@@H](O)[C@@H]1C(C)(C)CC[C@@H]2O (stereo partly drawn)
Response given: active

Challenge: Write down the call the test reported for this molecule. Item: COc1cc2ncnc(Nc3ccc(F)c(Cl)c3)c2cc1OCCCN1CCOCC1
Response given: active

Challenge: Write down the call the test reported for this molecule. Item: COc1cccc([C@@H](C)NCCCc2ccccc2Cl)c1
Response given: inactive

---

Protocol Text: qHTS of pediatric cancer cell lines to identify multiple opportunities for drug repurposing: Primary screen for A673 cells (AID 1347092); also: nearly all actives have a fitted effect of over 45% in size
Condition Set: A673 Ewing sarcoma viability, CellTiter-Glo ATP luminescence, 48 h; series mostly up to 46 µM
Results filed as inconclusive are left out. Calls of active or inactive are those of the source. Calls come from the whole dose curve; as a rule, active = well fitted cell-killing curve with a large enough effect; inconclusive = small, poorly fitted or top-dose-only effect; inactive = no such curve, though single readings can be large or run the other way.
Outcomes you can answer with include only these: active, inactive

Examples with answers:
| Molecule | Class Assignment |
| --- | --- |
| N[C@@]1(C(=O)O)CS(=O)(=O)[C@H]2[C@H](C(=O)O)[C@H]21 | active |
| COC(=O)[C@@H]1[C@H]2C[C@H]3c4[nH]c5ccccc5c4CCN3C[C@@H]2CC[C@@H]1O | inactive |
| CCNc1cc(NC2CCC(O)CC2)nc(Nc2ccc3c(ccn3Cc3ccccc3)c2)n1 (configuration not stated) | active |
| Clc1cc(Cl)cc(CNc2ncncc2-c2ccc3c(c2)OCO3)c1 | active |
| C=C1C(=O)[C@@]23C(CC[C@@H]1[C@H]2O)[C@@]12CO[C@]3(O)[C@@H](O)[C@@H]1C(C)(C)CC[C@@H]2O (some centres not stated) | active |

Challenge: Write down the call the test reported for this molecule. Item: O=c1cc(N2CCOCC2)oc2c(-c3cccc4c3sc3ccccc34)cccc12
Response given: active

Challenge: Write down the call the test reported for this molecule. Item: COc1ccc(-c2coc3cc(O)ccc3c2=O)cc1
Response given: inactive

Challenge: Write down the call the test reported for this molecule. Item: C=C1C(=O)OC(CCCCCCCC)C1C(=O)O (configuration not stated)
Response given: inactive

Challenge: Write down the call the test reported for this molecule. Item: CC(C)C(C)C=CC(C)C1CCC2C3=CC=C4CC(O)CCC4(C)C3CCC21C (configuration not stated)
Response given: inactive

Challenge: Write down the call the test reported for this molecule. Item: CN[C@@H](C)C(=O)N[C@H]1CN(C(=O)CC(C)C)CC[C@H]2CC[C@@H](C(=O)NC(c3ccccc3)c3ccccc3)N2C1=O
Response given: active

Challenge: Write down the call the test reported for this molecule. Item: COC(=O)C1=CO[C@@H](O)[C@@H]2C(CO)=CC[C@@H]12
Response given: inactive

Challenge: Write down the call the test reported for this molecule. Item: C[C@H]1[C@H](NC(=O)C(=NOC(C)(C)C(=O)O)c2csc(N)n2)C(=O)N1S(=O)(=O)O
Response given: inactive
